Taken from ChEMBL document CHEMBL1201862.

tested on: MOLT-4; experiment: NCI tumour cell line growth inhibition, 48 h
Active and inactive are the calls of the source. Cut-off read from the data, not from the text of the source: active = GI50 up to about 1.1 µM and inactive = higher.
Outcomes: Y for active, N for inactive

1) COc1cc(/C=C2\N=C(c3ccccc3)N(c3nc4ccc(Sc5ccccc5)cc4[nH]3)C2=O)cc(OC)c1OC :: N
2) COc1ccc2oc3c(C)cc4c(OC)nnc(OC)c4c3c2c1 :: N
3) CC(N/N=C(\S)N1CCN(c2ccccn2)CC1)c1nccc2ccccc12 (stereo unspecified) :: Y
4) COc1ccc2nc(-c3ccccn3)cc(O)c2c1 :: N
5) COc1ccc2c(ccc3c(C(=O)NCCCN(C)CCCNC(=O)c4cn(C)c5c4ccc4cc(OC)ccc45)cn(C)c32)c1 :: N
6) COc1cc(/C=C2\CC/C(=C\c3cc(OC)c(O)c(OC)c3)C2=O)cc(OC)c1O :: Y

---

GI50 values by entry
tested on: LXFL 529; assay: NCI tumour cell line growth inhibition, 48 h
Calls of active or inactive are those of the source. Cut-off read from the data, not from the text of the source: active = GI50 up to about 1.1 µM and inactive = higher.
MEASURE_NAME: GI50

1. N#Cc1c2ccccc2cn1-c1ccc(F)cc1 :: 31.3 µM (inactive)
2. COC(=O)c1cc2c(c(C(=O)OC)c1O)C(=O)C=CC2=O :: 11.6 µM (inactive)
3. O=C(c1ccccc1)c1oc2ccc(Br)cc2c1-c1cnn(-c2ccccc2)c1 :: > 100 µM (inactive)
4. CCOC(OC1=C(C#N)CCCC1)C(C)[Se]c1ccccc1 (stereo not drawn) :: 22.7 µM (inactive)
5. Cc1ccc(NC(=O)OCC(COc2ccc(Cl)cc2)OC(=O)Nc2ccc(C)cc2)cc1 (stereo not drawn) :: 23.4 µM (inactive)
6. O=C1C2Cc3ccccc3CN2C(=O)N1CCN1CCOCC1 (stereo not drawn) :: > 100 µM (inactive)
7. Cn1c(=O)nc2n(-c3ccc(Cl)cc3)c(-c3ccccc3)c(-c3ccccc3)nc-2c1=O :: 27.7 µM (inactive)
8. CC(C)=CC(=O)N(C)C1C2CN3CCC(O2)C13 (stereo not drawn) :: > 100 µM (inactive)
9. S=C(N/N=C/c1ccco1)NC12CC3CC(CC(C3)C1)C2 :: 52.2 µM (inactive)
10. CC1=Nc2c(O)nc(S)nc2NC(c2c(Cl)cccc2Cl)C1 (stereo not drawn) :: 2.96 µM (inactive)
11. COC1OC2COC(C)(C)OC2C(OC(C)=O)C1NC(=O)N(CCCl)N=O (stereo not drawn) :: > 100 µM (inactive)
12. COc1ccccc1-n1c(N)c2c(C)c(-c3ccccc3)[nH]c2nc1=S :: > 100 µM (inactive)
13. COc1cc2c(cc1O)CN1CCC23C=C[C@@H](O)CC13 (stereo partly drawn) :: 51.3 µM (inactive)

---

GI50 values by entry
system: UACC-62; test: NCI tumour cell line growth inhibition, 48 h
The source made the active and inactive calls. No stated cut-off is given here; in the data, active = GI50 up to about 1.1 µM and inactive = higher.
MEASURE_NAME: GI50

1. CCCCCCCCCCCCOCC1(COCCCCCCCCCCCC)COC(c2ccc(N)cc2)OC1 :: > 100 µM (inactive)
2. NCCOCC(N)C(=O)O (centres undefined) :: > 100 µM (inactive)
3. COC(=O)/C=C\C(C#N)(C#N)/N=C/c1ccc(Br)cc1 :: 11.3 µM (inactive)
4. COc1ccc2nc3cc([N+](=O)[O-])ccc3c(NNc3ccc(Cl)cc3)c2c1 :: 2.44 µM (inactive)
5. O=C(O)c1cc2ccccc2c(/N=N/c2c([N+](=O)[O-])cc([N+](=O)[O-])cc2S(=O)(=O)O)c1O :: > 100 µM (inactive)
6. Cc1nn2c(=O)c([N+](=O)[O-])c(/C=C/c3ccccc3)nc2s1 :: 5.33 µM (inactive)
7. O=C(O)CCCC#CCCCC(=O)O :: > 100 µM (inactive)
8. COC1=CC(=O)c2c(cc3c(c2O)-c2c(OC)cc4cc5c(c(O)c4c2OC(=O)CC(C)(O)C3)C(=O)CC(C)(O)C5)C1=O (centres undefined) :: 1.19 µM (inactive)
9. Nc1nc(Cl)nc(NCc2ccccc2)n1 :: > 100 µM (inactive)

---

test system: OVCAR-3; assay: NCI tumour cell line growth inhibition, 48 h
Active and inactive are the calls of the source. No stated cut-off is given here; in the data, active = GI50 up to about 1.1 µM and inactive = higher.
GI50 values by entry
MEASURE_NAME: GI50

1. O=C1C=CC(=O)c2cc(Sc3ccccc3)c(=O)ccc21 :: 16.9 µM (inactive)
2. CC(=O)N[C@@H](Cc1ccc(O)cn1)C(=O)NCc1cccc(F)c1 :: > 100 µM (inactive)
3. CCCCCCCCCCCCCCCCCCOc1ccc(/C=C/C2=[N+](CCCl)CCO2)cc1 :: > 100 µM (inactive)
4. COc1cc(C2c3cc4c(cc3OC3(OC)COC(=O)C23)OCO4)cc(OC)c1OC(C)=O (centres undefined) :: 1.3 µM (inactive)
5. CCOC(=O)N1C=NC23C(c4ccccc4)C(c4ccccc4)C12C(=O)N(C)C(=O)N3C (centres undefined) :: > 100 µM (inactive)
6. O=[N+]([O-])c1ccc2nc(/C(=N/Nc3ccccc3)C(O)c3ccc(Cl)cc3Cl)c(O)nc2c1 (centres undefined) :: > 100 µM (inactive)
7. O=S1(=O)OCCCOS(=O)(=O)C1(Br)Br :: > 100 µM (inactive)
8. O=C(O)CCCC#CCCCC(=O)O :: > 100 µM (inactive)
9. Cn1cnc2c(sc3nc4ccccc4n32)c1=N :: > 100 µM (inactive)

---

GI50 values by entry
tested on: HT-29; experiment: NCI tumour cell line growth inhibition, 48 h
Active and inactive are the calls of the source. No stated cut-off is given here; in the data, active = GI50 up to about 1.1 µM and inactive = higher.
MEASURE_NAME: GI50

1. C/C(=N/NC(=S)N1CCCCC1)c1ccccc1O :: 23.1 µM (inactive)
2. Cc1cc2c(cc1C)[n+]([O-])c(C#N)c(Cl)[n+]2[O-] :: 4.44 µM (inactive)
3. CC[C@@H]1/C=C/C=C/C[C@H](C)[C@@H](O)[C@](C)(O)C(=O)[C@H](C)[C@@H](O)[C@H](C)C(=O)[C@H](C)[C@@H](O)[C@H](C)/C=C/C(=O)O[C@H]2[C@@H](C)[C@@H](CC1)O[C@@]1(CC[C@@H](C)[C@@H](CC(C)O)O1)[C@@H]2C (stereo partly drawn) :: 1.36 µM (inactive)
4. COC(=O)C(=O)C(C#N)c1c(Cl)cccc1Cl (stereo not drawn) :: > 100 µM (inactive)
5. O=[N+]([O-])c1ccc(OCc2nnc(CCCCCCCCc3nnc(COc4ccc([N+](=O)[O-])cc4)o3)o2)cc1 :: > 100 µM (inactive)
6. SC1=Nc2ccccc2-c2nc(-c3ccccc3)cc(-c3ccc(Br)cc3)c2C1 :: 2.07 µM (inactive)
7. COC1OC2COC(C)(C)OC2C(OC(C)=O)C1NC(=O)N(CCCl)N=O (stereo not drawn) :: > 100 µM (inactive)
8. CC(=O)NC1C(OCc2ccccc2)OC(COC(=O)CCCCCCCCCCNC(=O)c2cccc3c(=O)c4ccccc4[nH]c23)C(O)C1OC(C)C(=O)NC(C)C(=O)NC(CCC(N)=O)C(N)=O (stereo not drawn) :: 75.9 µM (inactive)

---

system: M14; assay: NCI tumour cell line growth inhibition, 48 h
Calls of active or inactive are those of the source. Cut-off read from the data, not from the text of the source: active = GI50 up to about 1.1 µM and inactive = higher.
Outcomes: active, inactive

1) NC(=S)N/N=C/c1ncccc1N :: active
2) COc1cc(/C=C/c2ccc(OC)c(OC)c2OC)cc(OC)c1OC :: inactive
3) CC(=O)OCC1OC(n2c3c(c(-c4ccco4)c(C#N)c2=S)CCCC3)C(OC(C)=O)C(OC(C)=O)C1OC(C)=O (configuration not stated) :: inactive
4) CC1=Nc2c(O)nc(S)nc2NC(c2c(Cl)cccc2Cl)C1 (configuration not stated) :: inactive
5) O=C1C2Cc3ccccc3CN2C(=O)N1CCN1CCOCC1 (configuration not stated) :: inactive
6) CC[S+](C)c1ccc(-c2c3nc(c(-c4ccc([S+](C)CC)cc4)c4ccc([nH]4)c(-c4ccc([S+](C)CC)cc4)c4nc(c(-c5ccc([S+](C)CC)cc5)c5ccc2[nH]5)C=C4)C=C3)cc1.[O-][Cl+3]([O-])([O-])[O-].[O-][Cl+3]([O-])([O-])[O-].[O-][Cl+3]([O-])([O-])[O-].[O-][Cl+3]([O-])([O-])[O-] (configuration not stated) :: inactive
7) CCCCCCCCCCCCCC(=O)OC(/C=C/C(C)C)C(O)C(O)C(OC)C(=O)NC1CCCCNC1=O (configuration not stated) :: active
8) Cc1cn(CC2=NCC(C)(C)CN2)c(=O)[nH]c1=O :: inactive
9) CCc1cccc(C)c1NC(=O)CC1C(=O)Nc2ccccc2[S+]1[O-] (configuration not stated) :: inactive
10) Brc1ccc(CCNCCN2CCCCC2)cc1 :: inactive
11) CC(=O)OCC1C(=O)OCC1C(=O)N1Cc2cc3ccccc3nc2C1 (configuration not stated) :: inactive
12) SC1=Nc2ccccc2-c2nc(-c3ccccc3)cc(-c3ccc(Br)cc3)c2C1 :: inactive
13) O=C(COC(=O)c1cccc2c(=O)c3ccccc3[nH]c12)Nc1ccccc1 :: inactive
14) C1CSCCSCSCCS1 :: inactive
15) COC(=O)Cc1ccc(Oc2nc3ccccc3nc2-c2cccs2)cc1 :: inactive
16) CN(C)CCC(/C=C/c1ccccc1)=N\Nc1ccc(Cl)cc1 :: inactive
17) CC(CCOc1ccc2ccc(=O)oc2c1)C1=CC(=O)C(C)(C)O1 (configuration not stated) :: inactive
18) COC1=CC(=O)c2c(cc3c(c2O)-c2c(OC)cc4cc5c(c(O)c4c2OC(=O)CC(C)(O)C3)C(=O)CC(C)(O)C5)C1=O (configuration not stated) :: inactive
19) C=CC1ON(Cc2ccccc2)CCc2cc(OC)c(OC)cc21 (configuration not stated) :: inactive
20) O=C(NCCC1CN(S(=O)(=O)C(F)(F)F)c2ccccc21)OCc1ccccc1 (configuration not stated) :: inactive
21) Cc1cc(C)c(-c2no/c(=N\S(=O)(=O)c3ccc(Cl)cc3)o2)c(C)c1 :: inactive
22) NC1=C(c2nc(-c3ccccc3)cs2)C(c2ccco2)c2c(c3ccccc3oc2=O)O1 (configuration not stated) :: inactive
